src = PubChem BioAssay AID1745844

System: rodent lifetime carcinogenesis bioassay, tumor incidence TD50
experiment.summary: carcinogenic potency in animals, long-term in vivo studies, CPDB compilation (AID 1745844)
cond: rat; strain MRC-Wistar; males; in drinking water; site: liver; lesion: several types; types named in the paper; dosed 78 weeks; study length 110 weeks
Active and inactive are the calls of the source. The rule behind the calls is not given here.
reported.metric: TD50

query: In one line, give reported TD50 of the entry CC(C)=NO .
result: 12.1 mg/kg/day (inactive)

====

System: rodent lifetime carcinogenesis bioassay, tumor incidence TD50
experiment.summary: carcinogenic potency in animals, long-term in vivo studies, CPDB compilation (AID 1745844)
cond: mouse; strain B6C3F1; males; inhaled; site: lung; lesion: alveolar/bronchiolar adenoma + alveolar/bronchiolar carcinoma + adenocarcinoma; dosed 82 weeks; study length 104 weeks
reported.metric: TD50

query: # assay system rodent lifetime carcinogenesis bioassay, tumor incidence TD50: give TD50 of C=CC=C
result: 19.2 mg/kg/day

====

System: rodent lifetime carcinogenesis bioassay, tumor incidence TD50
experiment.summary: carcinogenic potency in animals, long-term in vivo studies, CPDB compilation (AID 1745844)
cond: rat; strain Sprague-Dawley; females; i.p.; site: any site (literature study); lesion: several types; types named in the paper; dosed 52 weeks; study length 78 weeks
reported.metric: TD50 (mg/kg/day)
I only need the number, in mg/kg/day, no unit after it.

query: Identify TD50 associated with the molecule Nc1nc(=S)c2ncn([C@H]3C[C@H](O)[C@@H](CO)O3)c2[nH]1
result: 4.11

====

Tested on: rodent lifetime carcinogenesis bioassay, tumor incidence TD50
experiment.summary: carcinogenic potency in animals, long-term in vivo studies, CPDB compilation (AID 1745844)
cond: rat; strain Charles River CD (Sprague-Dawley); males; inhaled; site: testis; lesion: Leydig-cell tumor; dosed 111 weeks; study length 111 weeks
reported.metric: TD50

query: Please give the documented TD50 of C=CC=C
result: 7550 mg/kg/day

====

Tested on: rodent lifetime carcinogenesis bioassay, tumor incidence TD50
experiment.summary: carcinogenic potency in animals, long-term in vivo studies, CPDB compilation (AID 1745844)
cond: mouse; strain B6C3F1; females; inhaled; site: liver; lesion: hepatocellular adenoma; dosed 103 weeks; study length 104 weeks
reported.metric: TD50
Please answer in the form of a number followed by its unit of measurement.

query: Give TD50 for CCc1ccccc1
result: 2450 mg/kg/day

====

Tested on: rodent lifetime carcinogenesis bioassay, tumor incidence TD50
experiment.summary: carcinogenic potency in animals, long-term in vivo studies, CPDB compilation (AID 1745844)
cond: rat; strain Fischer 344; males; in feed; site: thyroid gland; lesion: follicular-cell adenoma + follicular-cell carcinoma; dosed 109 weeks; study length 109 weeks
reported.metric: TD50 (mg/kg/day)
All answers are understood in mg/kg/day, so give the number only.

query: Determine its reported TD50: S=C(NC1CCCCC1)NC1CCCCC1
result: 7410

====

Test system: rodent lifetime carcinogenesis bioassay, tumor incidence TD50
experiment.summary: carcinogenic potency in animals, long-term in vivo studies, CPDB compilation (AID 1745844)
cond: rat; strain Charles River CD (Sprague-Dawley); males; in feed; site: liver; lesion: angiosarcoma; dosed 142 weeks; study length 142 weeks
reported.metric: TD50

query: Identify the reported TD50 for the following entry. Cc1ccccc1S(N)(=O)=O
result: 17200 mg/kg/day

====

Tested on: rodent lifetime carcinogenesis bioassay, tumor incidence TD50
experiment.summary: carcinogenic potency in animals, long-term in vivo studies, CPDB compilation (AID 1745844)
cond: mouse; strain C3HfB; females; in feed; site: lung; lesion: one or several types; types not named; dosed 104 weeks; study length 104 weeks
The source made the active and inactive calls. How the calls were made is not given here.
reported.metric: TD50

query: Hello, please tell me recorded TD50 for this one: C#C[C@]1(O)CC[C@H]2[C@@H]3CCc4cc(OC)ccc4[C@H]3CC[C@@]21C (tested in a mixture with another compound)
result: 27.6 mg/kg/day (inactive)

====

Tested on: rodent lifetime carcinogenesis bioassay, tumor incidence TD50
experiment.summary: carcinogenic potency in animals, long-term in vivo studies, CPDB compilation (AID 1745844)
cond: mouse; strain Swiss; females; in feed; site: any site (literature study); lesion: several types; types named in the paper; dosed 46 weeks; study length 55 weeks
reported.metric: TD50 (mg/kg/day)
Numbers only here, please. The scale is mg/kg/day.

Please review the following examples before continuing.
CC(=O)Nc1nnc(-c2ccc([N+](=O)[O-])o2)s1 6.9
O=C(Nc1nc(-c2ccc([N+](=O)[O-])o2)cs1)C(F)(F)F 8.01
Nc1nc(-c2ccc([N+](=O)[O-])o2)cs1 6.83

Read the next record carefully.
query: Tell us which TD50 value is on record for NNc1nc(-c2ccc([N+](=O)[O-])o2)cs1
result: 7.57

====

System: rodent lifetime carcinogenesis bioassay, tumor incidence TD50
experiment.summary: carcinogenic potency in animals, long-term in vivo studies, CPDB compilation (AID 1745844)
cond: rat; strain Fischer 344; males; inhaled; site: liver; lesion: hepatocellular adenoma + hepatocellular carcinoma + neoplastic nodule; dosed 103 weeks; study length 104 weeks
reported.metric: TD50 (mg/kg/day)
# unit: mg/kg/day | format: bare number

Consider the reported TD50 for these molecules:
molecule	tested.on	TD50, mg/kg/day
ClC(Cl)=C(Cl)Cl	rodent lifetime carcinogenesis bioassay, tumor incidence TD50	368
C=CC	rodent lifetime carcinogenesis bioassay, tumor incidence TD50	4610

Now examine the next entry.
query: Determine its reported TD50: CC1CO1 (stereo not drawn)
result: 528

====

Tested on: rodent lifetime carcinogenesis bioassay, tumor incidence TD50
experiment.summary: carcinogenic potency in animals, long-term in vivo studies, CPDB compilation (AID 1745844)
cond: rat; strain Wistar; males; inhaled; site: liver; lesion: malignant tumor; dosed 78 weeks; study length 130 weeks
reported.metric: TD50 (mg/kg/day)
# value in mg/kg/day; strip the unit string

query: // Input: [O]=[Cr](=[O])([OH])[O][Cr](=[O])(=[O])[OH] . Output its TD50 only.
result: 14.4

====

Test system: rodent lifetime carcinogenesis bioassay, tumor incidence TD50
experiment.summary: carcinogenic potency in animals, long-term in vivo studies, CPDB compilation (AID 1745844)
cond: rat; strain Osborne-Mendel; males; in drinking water; site: any site (literature study); lesion: several types; types named in the paper; dosed 104 weeks; study length 104 weeks
reported.metric: TD50 (mg/kg/day)
// note: answer is a bare numeric in mg/kg/day

query: Supply measured TD50 of ClC(Cl)Cl in your reply.
result: 1970

====

System: rodent lifetime carcinogenesis bioassay, tumor incidence TD50
experiment.summary: carcinogenic potency in animals, long-term in vivo studies, CPDB compilation (AID 1745844)
cond: rat; strain Wistar-random; males; inhaled; site: nasal mucosa; lesion: several types; types named in the paper; dosed 50 weeks; study length 105 weeks
reported.metric: TD50

query: Identify measured TD50 obtained with rodent lifetime carcinogenesis bioassay, tumor incidence TD50 for CC=O .
result: 88.5 mg/kg/day

====

System: rodent lifetime carcinogenesis bioassay, tumor incidence TD50
experiment.summary: carcinogenic potency in animals, long-term in vivo studies, CPDB compilation (AID 1745844)
cond: rat; strain Fischer 344; males; in feed; site: liver + Zymbal's gland; lesion: hepatocellular carcinoma + neoplastic nodule + squamous-cell carcinoma; dosed 78 weeks; study length 106 weeks
reported.metric: TD50 (mg/kg/day)
Write down the numeric answer in mg/kg/day and omit the unit.

query: // Input: c1ccc(NNc2ccccc2)cc1 . Output its TD50 only.
result: 3.55

====

System: rodent lifetime carcinogenesis bioassay, tumor incidence TD50
experiment.summary: carcinogenic potency in animals, long-term in vivo studies, CPDB compilation (AID 1745844)
cond: rat; strain Fischer 344; females; in drinking water; site: uterus; lesion: endometrial stromal polyp; dosed 91 weeks; study length 93 weeks
reported.metric: TD50 (mg/kg/day)
Express it in mg/kg/day; write the number only.

query: Provide TD50, system rodent lifetime carcinogenesis bioassay, tumor incidence TD50, entry COc1cc(-c2ccc(N)c(OC)c2)ccc1N
result: 11.6

====

Tested on: rodent lifetime carcinogenesis bioassay, tumor incidence TD50
experiment.summary: carcinogenic potency in animals, long-term in vivo studies, CPDB compilation (AID 1745844)
cond: rat; strain Fischer 344; males; in feed; site: spleen; lesion: fibrosarcoma; dosed 103 weeks; study length 104 weeks
reported.metric: TD50

query: Retrieve TD50 measured for Cc1cc(N=Nc2c(O)ccc3ccccc23)c(S(=O)(=O)O)cc1Cl and print it.
result: 211 mg/kg/day

====

Tested on: rodent lifetime carcinogenesis bioassay, tumor incidence TD50
experiment.summary: carcinogenic potency in animals, long-term in vivo studies, CPDB compilation (AID 1745844)
cond: rat; strain Fischer 344; males; inhaled; site: all sites; lesion: mesothelioma, malignant; dosed 104 weeks; study length 104 weeks
reported.metric: TD50 (mg/kg/day)
Please give a number only; it is taken to be in mg/kg/day.

query: Consider the compound C=CC(=C)Cl and give its recorded TD50.
result: 27.1

====

Tested on: rodent lifetime carcinogenesis bioassay, tumor incidence TD50
experiment.summary: carcinogenic potency in animals, long-term in vivo studies, CPDB compilation (AID 1745844)
cond: hamster; strain Syrian Golden; females; by gavage; site: liver; lesion: all vascular tumors; dosed 41 weeks; study length 81 weeks
The source made the active and inactive calls. How the calls were made is not given here.
reported.metric: TD50

query: Complete the entry with TD50 for CN(CC(O)CO)N=O (stereo unspecified)
result: 12.7 mg/kg/day (inactive)
